Values compiled from the DeepSol protein solubility set.

- protocol.summary: soluble on expression in E. coli; label from the status in PepcDB or PDB records
observation.type: soluble on expression in E. coli

1. MGSDKIHHHHHHMPVDWPLRFPQLSGGASRPHSSLASTCVGGLQELMQSCYPPRGGCWIAAVLEDAGVERVCGLLGKGHAGVVLLVEWRGVAAALKVRRRDSRRGSLEPEARVAEKAALAGAAPEVYGYGEEFIAMAPALGPSLQDLAEEGLLTPQHILASIEAAWALDNAGILHGELHRPWRNVLFNPRKALIIDYDSASSGCGNVVKLVSGISRRVPSLLGLVRSERFRDLAKRYYREGCGKATYMEMLDEVKKHISVI = not soluble
2. MTVKAVFFDIDGTLLNDRKNIQKTTQKAIQQLKKQGIMVGLATGRGPGFVQPFLENFGLDFAVTYNGQYILTRDKVLYQNQLPKSMIYKVIRYANEKKREISLGTASGLAGSRIIDMGTSPFGQVISSFVPKSWARTVEGSFKHLIRRIKPQSFRNLVTIMREPIYQVVLVASQAETKKIQEKFPHIKITRSSPYSLDLISVDQSKIKGIERLGEMFGFDLSEVMAFGDSDNDLEMLSGVGIGIAMGNAETVVKDGAHFTTDSNNNDGISKALAHYGLIH = not soluble
